Assay: in vitro
Details: human, hela cells, % viability
READOUT KIND: viability at 28.5 h, 10 µM (%)
One number for each entry, in %.

[[record]]
compound = "O=C1CN(Cc2ccccc2)C(=O)N1CC1CCCCC1 [CBK162367]"
result_unit = "%"
readout_value = 93.7

[[record]]
compound = "Cc1cc(C(F)(F)F)c2c(NCc3ccoc3)n[nH]c2n1 [CBK284698]"
result_unit = "%"
readout_value = 82.9

[[record]]
compound = "O=C(O)c1cccc(Nc2nc3ccccc3nc2NS(=O)(=O)c2ccc(Br)cc2)c1 [CBK296113]"
result_unit = "%"
readout_value = 111

[[record]]
compound = "CCOC(=O)Nc1ccc2ccccc2n1 [CBK028207]"
result_unit = "%"
readout_value = 87.3

[[record]]
compound = "N#Cc1ccc2nc([C@H]3CCN(C(=O)c4ccccc4)C3)[nH]c2c1 [CBK289379]"
result_unit = "%"
readout_value = 92.4

[[record]]
compound = "COC(=O)c1ccsc1NS(=O)(=O)c1ccccc1 [CBK026667]"
result_unit = "%"
readout_value = 88.7

[[record]]
compound = "COc1cc(CNCc2cnn(C)c2)c(O)c(C(C)(C)C)c1 [CBK304721]"
result_unit = "%"
readout_value = 85.8

[[record]]
compound = "CCn1nc2c(c1C(=O)Nc1cccc(CCc3ccncc3)c1)CCCC2 [CBK285561]"
result_unit = "%"
readout_value = 87.5


Answer for every listed entry: what is its viability at 28.5 h, 10 µM? The entries follow.
1. CCn1c(C)cc2cc(NS(=O)(=O)c3cn(C)nc3C)ccc21 [CBK282789]
2. c1ccc2c(c1)CCN2c1ncnc2[nH]cnc12 [CBK291104]
3. Cn1cnc(C(=O)N2CCC[C@@H]3NC(=O)c4ccccc4OCCCCC[C@@H]32)c1 [CBK292122]

Result block:
1: 93.5; 2: 100; 3: 114
